Provide the recorded Log 1/C for the entries that follow.
Test system: Escherichia coli
test.protocol: Antibacterial activity was evaluated against Escherichia coli
Format: functional
Numbers only.

Known results for compounds:
O=C(O)c1cn(C2CC2)c2c(Cl)c(N3C[C@H]4CCCN[C@H]4C3)c(F)cc2c1=O = 7.47
O=C(O)c1cn(-c2ccc(F)cc2F)c2nc(N3C[C@@H]4CCCN[C@@H]4C3)c(F)cc2c1=O = 7.5

Hi! Can you tell me Log 1/C for each of these compounds?
1. CO/N=C/Cn1cc(C(=O)O)c(=O)c2cc(F)c(N3C[C@@H]4CCCN(C)[C@@H]4C3)c(F)c21
2. CC(C)(C)N1CCN(c2cc3c(cc2F)c(=O)c(C(=O)O)cn3C2CC2)CC1
3. O=C(O)c1cn(C2CC2)c2cc(N3CCN(c4ccncc4)CC3)c(F)cc2c1=O
4. O=C(O)c1cn(C2CC2)c2cc(N3C[C@H]4CCCN[C@H]4C3)c(F)cc2c1=O

Result block:
1: 5.62; 2: 7.1; 3: 5.91; 4: 6.82

---

Test system: Escherichia coli
test.protocol: Antibacterial activity was evaluated against Escherichia coli
Type: functional
Provide the recorded Log 1/C for the entries that follow.
Give bare numbers.

Field: example entries. Status: answers known.
CN1CCN(c2nc3c(cc2Cl)c(=O)c(C(=O)O)cn3C2CC2)CC1 = 6.77
CCOc1c(F)cc2c(=O)c(C(=O)O)cn(C(C)(C)CF)c2c1Cl = 4.35
O=C(O)c1c(=O)c2cc(F)c(N3C[C@@H]4CCCN[C@@H]4C3)c3c2n2c(csc12)CS3 = 7.16

Please state, for each entry, its recorded Log 1/C.
1. CC(C)(C)n1cc(C(=O)O)c(=O)c2cc(F)c(N3CCNCC3)cc21
2. O=C(O)c1cn(C2CCOCC2)c2cc(N3CCNCC3)c(F)cc2c1=O

Result block:
1. 7.06
2. 3.77

---

Tested on: Escherichia coli
test.protocol: Antibacterial activity was evaluated against Escherichia coli
Type: functional
I'd appreciate it if you could supply Log 1/C values for the items below.
Give bare numbers.

# count of solved cases: 6
O=C(O)c1cn(C(CF)CF)c2cc(N3C[C@@H]4CCCN[C@@H]4C3)c(F)cc2c1=O = 5.61
CN1CCC[C@@H]2CN(c3c(F)cc4c(=O)c(C(=O)O)cn(C5CC5)c4c3Cl)C[C@@H]21 = 7.15
O=C(O)c1cn(C2C[C@@H]2F)c2c(Cl)c(N3C[C@H]4CCCN[C@H]4C3)ccc2c1=O (some centres undefined) = 7.13
COc1c(N2C[C@@H]3CCCN[C@@H]3C2)c(F)cc2c(=O)c(C(=O)O)cn(C3CC3)c12 = 7.46
O=C(O)c1cn(C2CC2)c2cc(N3C(=O)C=CC3=O)c(F)cc2c1=O = 3.43
CN1CCN(c2c(F)cc3c(=O)c(C(=O)O)cn4c3c2OC(C(C)(C)C)=C4)CC1 = 4.44

Batch request: Log 1/C per item, same order as input.
1. N[C@@]12C=CC=CC1CN(c1c(F)cc3c(=O)c(C(=O)O)cn([C@@H]4C[C@@H]4F)c3c1Cl)C2 (some centres undefined)
2. C[C@@H]1CN(c2c(F)c(N)c3c(=O)c(C(=O)O)cn(C4CC4)c3c2F)C[C@H](C)N1
3. CCn1cc(C(=O)O)c(=O)c2cc(F)c(N3CCN(C)CC3)cc21
4. O=C(O)c1cn(C2CC2)c2c([N+](=O)[O-])c(N3CCOCC3)c(F)cc2c1=O
5. O=C(O)c1cn(C2CC2)c2cc(N3C[C@@H]4CCCN[C@@H]4C3)c(F)cc2c1=O

Result block:
[8.06, 7.42, 7.05, 5.58, 7.12]

Return reported Log 1/C values for all items listed beneath this line.
1. C=CCN1CCN(c2cc3c(cc2F)c(=O)c(C(=O)O)cn3C2CC2)CC1
2. O=C(O)c1cn(C2CC2)c2cc(N3CCN(c4ncccn4)CC3)c(F)cc2c1=O
3. C[C@H]1COc2c(N3CCN(C)CC3)c(F)cc3c(=O)c(C(=O)O)cn1c23.C[C@H]1COc2c(N3CCN(C)CC3)c(F)cc3c(=O)c(C(=O)O)cn1c23.O
4. C[C@H]1COc2c(N3C[C@@H]4CCCN[C@@H]4C3)c(F)cc3c(=O)c(C(=O)O)cn1c23
5. CC1=C(C)n2cc(C(=O)O)c(=O)c3c(F)c(F)c(N4CCN(C5CC5)CC4)c(c32)O1
6. C#Cc1c(N2C[C@@H]3CCCN[C@@H]3C2)c(F)cc2c(=O)c(C(=O)O)cn(C3CC3)c12

Result block:
[6.82, 4.41, 7.41, 6.8, 4.12, 7.7]

---

For each record, write down the corresponding Log 1/C.
System: Enterococcus faecalis
test.protocol: Antibacterial activity evaluated against Enterococcus faecalis
Assay type: functional
One number for each entry.

N[C@@H]1CN(c2c(F)cc3c(=O)c(C(=O)O)cn([C@@H]4C[C@@H]4F)c3c2Cl)CC12CC2 [SITAFLOXACIN ANHYDROUS] = 7.45

Count: 3. Required value per item: Log 1/C.
1. CC(C)(C)N1CCN(c2cc3c(cc2F)c(=O)c(C(=O)O)cn3C2CC2)CC1
2. N[C@@]12C=CC=CC1CN(c1c(F)cc3c(=O)c(C(=O)O)cn([C@@H]4C[C@@H]4F)c3c1Cl)C2 (some centres undefined)
3. O=C(O)c1cn(C2CC2)c2c(F)c(N3C[C@H]4CCCN[C@H]4C3)c(F)cc2c1=O

Result block:
[5.89, 7.16, 6.53]

---

Provide the recorded Log 1/C for the entries that follow.
Test system: Enterococcus faecalis
test.protocol: Antibacterial activity evaluated against Enterococcus faecalis
Type: functional

Past entries and their recorded results:
CC1CN(c2c(F)cc3c(=O)c(C(=O)O)cn(C4CC4)c3c2Cl)CC(C)N1 (stereo not given) = 5.93
O=C(O)c1cn(C2CC2)c2c(F)c(N3C[C@@H]4OCCN[C@@H]4C3)c(F)c(Br)c2c1=O = 5.37

I have 3 compounds here; please give me Log 1/C for each one.
1. O=C(O)c1cn(C2CCOCC2)c2cc(N3CCNCC3)c(F)cc2c1=O
2. C=CCN1CCN(c2cc3c(cc2F)c(=O)c(C(=O)O)cn3C2CC2)CC1
3. CCOc1c(F)cc2c(=O)c(C(=O)O)cn(C(C)(C)CF)c2c1Cl

Result block:
[4.07, 5.61, 4.05]

Can you give me Log 1/C for all of these, one by one?
1. CC(C)(C)n1cc(C(=O)O)c(=O)c2cc(F)c(N3CCNCC3)cc21
2. CN1CCN(c2c(F)cc3c(=O)c(C(=O)O)cn(CF)c3c2F)CC1

Result block:
[6.44, 5.55]

For every listed record, write down its Log 1/C.
1. O=C(O)c1cn2c3c(c(N4CCN(C5CC5)CC4)c(F)cc3c1=O)OC1=C2CCC1
2. CO/N=C/Cn1cc(C(=O)O)c(=O)c2cc(F)c(N3CCN(C)CC3)c(F)c21
3. O=C(O)c1cn(C2CC2)c2cc(N3CCN(C4CC4)CC3)c(F)cc2c1=O

Result block:
1: 4.75; 2: 3.49; 3: 5.57

---

Tested on: Escherichia coli
test.protocol: Antibacterial activity was evaluated against Escherichia coli
Format: functional
Y if Log 1/C is below 7. N if not; exact matches included in N.

O=C(O)c1cn(C2CC2)c2cc(N3CCNCC3)c(F)cc2c1=O = N

Query block: Consider the molecule `O=C(O)c1cn(C2CC2)c2c(F)c(N3C[C@@H]4OCCN[C@@H]4C3)c(F)c(Br)c2c1=O` . Is its Log 1/C strictly less than 7?
Result block: Y

Query block: Is Log 1/C of N[C@@H]1CN(c2c(F)cc3c(=O)c(C(=O)O)cn([C@@H]4C[C@@H]4F)c3c2Cl)CC12CC2 [SITAFLOXACIN ANHYDROUS] strictly below 7?
Result block: N

Query block: Log 1/C under 7? Item: `O=C(O)c1cn(C2CC2)c2c(Cl)c(N3CCCCC3)c(F)cc2c1=O`
Result block: Y

---

System: Enterococcus faecalis
test.protocol: Antibacterial activity evaluated against Enterococcus faecalis
Format: functional
Label fulfilled when Log 1/C is at or above 6; otherwise label not fulfilled.

A selection of reference data follows.
O=C(O)c1cn(C2CC2)c2c(Cl)c(N3C[C@H]4CCCN[C@H]4C3)c(F)cc2c1=O = fulfilled
CC1=C(C)n2cc(C(=O)O)c(=O)c3c(F)c(F)c(N4CCN(C5CC5)CC4)c(c32)O1 = not fulfilled

Query block: Given the entry `C#CCN1CCN(c2c(F)cc3c(=O)c(C(=O)O)cn(C4CC4)c3c2Cl)CC1` , answer whether its Log 1/C meets or surpasses 6.
Result block: not fulfilled

Query block: State whether the measured Log 1/C reaches 6, counting equality as reaching it, for `CSc1cc2c(=O)c(C(=O)O)cn(C3CC3)c2c(SC)c1SC`
Result block: not fulfilled
